Reference source for all entries: ChEMBL document CHEMBL4513216

- measurement-notes: Toxicity liver stage against HepG2, at 10uM
- Type: cell-based
- Design: test concentration 10 uM, cell line HepG2-A16-CD81EGFP
- applied-conditions: human, HepG2-A16-CD81EGFP cells; read-out: INHIBITION
metric: cytotoxicity at 10 µM (%)

>>> value_observed("CCCc1nc(C)cc(N2CCNC(C(=O)Nc3ccc(C)nc3)C2)n1 (stereo not drawn)")
-48.5
>>> value_observed("Cc1ccnc(OC[C@]23COC[C@H]2CN(C(=O)c2cnccn2)C3)n1")
-7.1
>>> value_observed("Cc1nc(CN(C)C2CCCN(c3cccnn3)C2)oc1C (stereo not drawn)")
-12.4
>>> value_observed("COCCCNC(=O)c1cc(OC)c2ccoc2c1")
16.9
>>> value_observed("Cc1cccc(N(CCC(N)=O)CC(=O)NC2CCCC2)c1")
-20
>>> value_observed("OCCNc1cc(N2CCC(n3cc(C4CCCC4)nn3)CC2)ncn1")
-9.72
>>> value_observed("COCC(=O)N1CC[C@@H](N2CCOCC2)[C@@H]1Cc1cccnc1")
-95.5
>>> value_observed("CC(C)NC(=O)CCNC(=O)c1cc(F)ccc1NS(C)(=O)=O")
-4.24
>>> value_observed("CCOc1cc(C(=O)NS(C)(=O)=O)cc(-c2ccccc2)c1OC")
12.5
>>> value_observed("Cc1ccc(N2CCCC(NCC(=O)NCC3CC3)C2)nn1 (stereo not drawn)")
-2.5
>>> value_observed("CSc1ccc(-c2cc(CN)nc3ccnn23)cc1")
-7.5
>>> value_observed("O=C(CCc1ccccc1)NCC1CCN(Cc2ccccc2)CC1")
-6.29
>>> value_observed("Cc1noc(C)c1CN1CCCC1c1nc(-c2ccccc2)no1 (stereo not drawn)")
-39.2
>>> value_observed("COc1ccc(C2CCCN2C(=O)c2cc3c([nH]c2=O)CCC3)cc1 (stereo not drawn)")
-10.7
>>> value_observed("Cc1ccc(CN(C)C(=O)NCC(C)(C)NS(C)(=O)=O)s1")
-0.422
>>> value_observed("CSc1ccsc1C(=O)NS(=O)(=O)c1ccc(F)cc1")
-3.91
>>> value_observed("Cc1noc(C)c1C(=O)N(C)C(C)c1ccncc1 (stereo not drawn)")
0.66
>>> value_observed("COCCCNC(=O)Nc1ncc(-c2cccc(OC)c2)n1CCOC")
18.6
>>> value_observed("COc1ccccc1OC1CN(C(=O)CN(C)Cc2ccncc2)C1")
-3.09
>>> value_observed("Cc1noc(CCCC(=O)NC(C)c2ccc(Cl)s2)n1 (stereo not drawn)")
-9.48
>>> value_observed("CSc1ccc(C(CNC(C)=O)N2CCc3sccc3C2)cc1 (stereo not drawn)")
6.84
>>> value_observed("CN1CCC(N(Cc2ccco2)S(=O)(=O)c2ccc(Br)cc2Cl)CC1")
-12.8
>>> value_observed("COc1cccc(N2CCN(CC(O)c3cc(C)ccc3C)CC2)c1 (stereo not drawn)")
4.91
>>> value_observed("COc1cccc(OCC(=O)NS(=O)(=O)c2cc(F)ccc2F)c1")
7.53
>>> value_observed("Cc1ccc2cc(C(=O)NCCn3nc4ccccn4c3=O)[nH]c2c1")
2.95
>>> value_observed("COCc1csc(NC(=O)NCc2ccc(C)s2)n1")
2.44
>>> value_observed("Cn1ncc2c(NCCC34CCCN3CCC4)nc(C3CCCC3)nc21")
-12.9
>>> value_observed("CNc1ccc(CC2CCCN(C(=O)c3scnc3C)C2)nn1 (stereo not drawn)")
-10.4
>>> value_observed("COc1c(CNCc2ccccc2-n2ccnc2)c(C)nn1C")
18.7
>>> value_observed("CC(=O)N[C@@H]1Cc2ccccc2[C@H]1Nc1cc(C2CC2)ncn1")
-45.2
>>> value_observed("Cc1cc(C)nc(NCCCC(=O)NCCn2ccc3ccccc32)n1")
-0.1
>>> value_observed("CC(C)S(=O)(=O)NC(=O)c1cc(-c2cccc(Cl)c2)no1")
10
>>> value_observed("Cc1nc(O)cc(C2CCN(C(=O)c3[nH]nc4c3CC(C)CC4)CC2)n1 (stereo not drawn)")
3.06
>>> value_observed("CCc1nc(CNC(=O)Nc2ccc(C(=O)NC)cc2C)cs1")
16.4
>>> value_observed("COCC(c1ccccn1)N(C)C(=O)c1cc(-c2cccn2C)n[nH]1 (stereo not drawn)")
-3.39
>>> value_observed("COC(=O)CN1N=C(C(=O)N2CCCC2)S(=O)(=O)c2ccccc21")
-8.25
>>> value_observed("CCn1nc(C)c2c1cnn2CC(=O)Nc1ccc(OC)cc1C")
-80.1
>>> value_observed("NC(=O)C1CCCN(Cc2ccc(C(=O)Nc3cnns3)cc2)C1 (stereo not drawn)")
13.7
